target: ScSla1-D3; assay: SPOT peptide array binding signal intensity (averaged, normalized) (arbitrary units (background-subtracted, floor 0; scale differs between SH3 domains)); higher = stronger binding of the SH3 domain to the peptide
Please provide measured SPOT peptide array binding signal intensity for the entries that follow.
Output: the number by itself.

Which SPOT peptide array binding signal intensity value is on record for "ANNQGPPNLPARDKS" ?
0.75

And for "FSRRQSMDIPSKNRN" ?
851

And for "RKLRTVPGVPLIHLT" ?
23.5

And for "QPQRTAPKPPISAPR" ?
25.5

And for "KNRKNLPTIPIRLSG" ?
27.8

And for "AGKRRLPLVRFKASD" ?
9.75

And for "RPPRPPPKPLHLRTE" ?
4.5
